TEST_SUMMARY: in vivo
CONDITION_SUMMARY: mouse, brain and plasma, po, 20 mg/kg
PARAMETER: Kp

COMPOUND | RECORDED_VALUE
COc1cccc(NCC(F)Cn2c3ccc(Br)cc3c3cc(Br)ccc32)n1 (racemic) | 0.81

====

TARGET_OR_TEST_SYSTEM: peripheral benzodiazepine receptor (translocator protein, TSPO) (Rattus norvegicus, UniProt P16257)
PARAMETER: IC50

COMPOUND | RECORDED_VALUE
COc1cccc(NCC(F)Cn2c3ccc(Br)cc3c3cc(Br)ccc32)n1 (single isomer, unassigned; (-)) [(−)-P7C3-S243] | 350 nM

Value source: patent US9902713B2
